# reported Kb; entries follow
# target.or.system: UniProtKB P31389
# method.notes: Potency against histamine H1 receptor on guinea pig ileum
# Type: tissue-based
# measurement.parameters: read-out: pA2 (converted)
measured.quantity: Kb (nM)

>>> readout_value("Cc1ccc([C@H](OCCN(C)C)c2ccccc2)cc1")
2
>>> readout_value("CN1CCC2=C(C1)C(c1ccccc1)c1ccccc12 (centres undefined) [PHENINDAMINE]")
1.58
>>> readout_value("Cc1ccc([C@@H](OCCN(C)C)c2ccccc2)cc1")
158
>>> readout_value("Cc1ccc(/C(=C\\CN2CCCC2)c2ccccn2)cc1 [TRIPROLIDINE]")
0.126

----------
# target.or.system: Histamine H1 receptor (Cavia porcellus, UniProt P31389)
# Sequence (P31389 whole entry): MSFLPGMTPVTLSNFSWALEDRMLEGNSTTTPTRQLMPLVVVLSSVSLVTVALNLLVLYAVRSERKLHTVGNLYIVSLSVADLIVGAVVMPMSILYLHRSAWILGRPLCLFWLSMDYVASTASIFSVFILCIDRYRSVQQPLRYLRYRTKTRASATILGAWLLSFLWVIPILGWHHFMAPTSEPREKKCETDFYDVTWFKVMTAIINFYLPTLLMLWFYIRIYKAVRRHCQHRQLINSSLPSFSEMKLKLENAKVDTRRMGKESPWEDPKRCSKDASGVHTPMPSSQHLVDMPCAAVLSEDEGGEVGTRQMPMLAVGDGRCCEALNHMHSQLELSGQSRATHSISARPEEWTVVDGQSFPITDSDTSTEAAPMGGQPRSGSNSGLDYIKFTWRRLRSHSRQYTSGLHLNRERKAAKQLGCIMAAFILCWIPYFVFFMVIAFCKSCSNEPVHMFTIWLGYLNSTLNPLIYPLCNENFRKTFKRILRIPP
measured.quantity: IC50 (nM)

>>> readout_value("NC1=NCC2c3ccccc3Cc3ccccc3N12 (stereo unspecified) [EPINASTINE]")
1.58

----------
# target.or.system: Histamine H1 receptor (Cavia porcellus, UniProt P31389)
# method.notes: Inhibition of [3H]mepyramine binding with histamine H1 receptor in guinea pig cerebellum membranes after 30 min
# Format: cell membranes, Membrane
pKi: −log10 of the molar value.
measured.quantity: pKi

>>> readout_value("Cc1ccc([C@H](OCCN(C)C)c2ccccc2)cc1")
7.91
>>> readout_value("CN1CCC2=C(C1)C(c1ccccc1)c1ccccc12 (centres undefined)")
8.20
>>> readout_value("NC1=NCC2c3ccccc3Cc3ccccc3N12 (centres undefined) [EPINASTINE]")
8.85
>>> readout_value("Cc1ccc(/C(=C\\CN2CCCC2)c2ccccn2)cc1")
8.78
